# key: entry, value: IC50
- Target: Jak1 (Homo sapiens)
- Construct: using a recombinant purified GST-tagged catalytic domain for each enzyme; GST; purchased Invitrogen M4290
- Assay method text: Jak Biochemical HTRF Assay (Jak1)
- Run parameters: IC50 class, recombinant GST-tagged catalytic domain, read-out: Jak1 activity

Compound	Target	Result
O=C(c1ccsc1)N1CCC[C@@H]2[C@H]1CCN2c1ncnc2[nH]ccc12	Jak1 (Homo sapiens)	10 to 100 nM

Q: Which value of IC50 has been reported for O=C(c1cccc2cnccc12)N1CCC[C@@H]2[C@H]1CCN2c1ncnc2[nH]ccc12 in the records?
Result: 10 to 100 nM

Q: # iterate: O=C(c1nccc2ccccc12)N1CCC[C@@H]2[C@H]1CCN2c1ncnc2[nH]ccc12
Result: 10 to 100 nM

Q: # iterate: Cc1cc(C(=O)N2CCC[C@@H]3[C@H]2CCN3c2ncnc3[nH]ccc23)no1
Result: 100 to 1000 nM

---

- Target: Jak1 (Homo sapiens, UniProt P23458)
- Construct: using a recombinant purified GST-tagged catalytic domain for each enzyme; GST; purchased Invitrogen M4290
- Sequence (P23458 875-1153 limits assumed): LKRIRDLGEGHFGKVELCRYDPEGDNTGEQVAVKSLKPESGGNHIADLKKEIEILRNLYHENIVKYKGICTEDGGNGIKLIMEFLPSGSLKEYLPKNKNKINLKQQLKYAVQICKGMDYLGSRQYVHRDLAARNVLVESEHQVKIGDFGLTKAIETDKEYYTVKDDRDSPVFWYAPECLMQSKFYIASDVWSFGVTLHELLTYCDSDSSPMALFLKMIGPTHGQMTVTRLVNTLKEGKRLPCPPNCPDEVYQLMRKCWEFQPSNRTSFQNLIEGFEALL
- Assay method text: Jak Biochemical HTRF Assay (Jak1)
- Run parameters: IC50 class, recombinant GST-tagged catalytic domain, read-out: Jak1 activity
# key: entry, value: IC50

Worked set:
Compound	IC50
COC(=O)c1ccc(COC(=O)N2CCC[C@H]3[C@@H]2CCN3c2ncnc3[nH]ccc23)cc1 [Example 5]	100 to 1000 nM
CN1CCCC(CCC(=O)N2CCC[C@@H]3[C@H]2CCN3c2ncnc3[nH]ccc23)C1 (stereo partly shown) [Example 29-55]	100 to 1000 nM
O=C(c1cccc(N2CCOCC2)c1)N1CCC[C@@H]2[C@H]1CCN2c1ncnc2[nH]ccc12 [Example 29-22]	100 to 1000 nM

As a next step, examine the compound that follows.
Q: Which value of IC50 has been reported for O=C(OC1Cc2ccccc2C1)N1CCCC2C1CCN2c1ncnc2[nH]ccc12 (stereo not shown) [Example 3-11] in the records?
Result: 10 to 100 nM

---

# key: entry, value: pIC50
- Target: Jak1 (Homo sapiens, UniProt P23458)
- Construct: using a recombinant purified GST-tagged catalytic domain for each enzyme; GST; purchased Invitrogen M4290
- Assay method text: Jak Biochemical HTRF Assay (Jak1)
- Run parameters: IC50 class, recombinant GST-tagged catalytic domain, read-out: Jak1 activity
pIC50: −log10 of the molar value.

Worked set:
Molecule	Target	pIC50
O=C(O)c1ccc(CCCN2CCC[C@@H]3[C@H]2CCN3c2ncnc3[nH]ccc23)cc1 [Example 14]	Jak1 (Homo sapiens, UniProt P23458)	6.00 to 7.00
O=C(Cc1ccc(C(F)(F)F)cc1)N1CCCC2C1CCN2c1ncnc2[nH]ccc12 (centres unmarked) [Example 29-5]	Jak1 (Homo sapiens, UniProt P23458)	7.00 to 8.00
O=C(OCCF)N1CCC[C@@H]2[C@H]1CCN2c1ncnc2[nH]ccc12 (single isomer, unassigned) [Example 3-30]	Jak1 (Homo sapiens, UniProt P23458)	7.00 to 8.00
O=C(CO)N1CCCC2C1CCN2c1ncnc2[nH]ccc12 (centres unmarked) [Example 17]	Jak1 (Homo sapiens, UniProt P23458)	6.00 to 7.00

Q: Which value of pIC50 has been reported for COC(=O)C1CC1CCOC(=O)N1CCC[C@@H]2[C@H]1CCN2c1ncnc2[nH]ccc12 (some centres unmarked) [Example 3-29] in the records?
Result: 7.00 to 8.00

Q: # iterate: CN(C)CCNC(=O)c1ccc(COC(=O)N2CCC[C@@H]3[C@H]2CCN3c2ncnc3[nH]ccc23)cc1 [Example 7-4]
Result: 6.00 to 7.00

Q: # iterate: O=C(OC(CCN1CCOCC1)c1ccccc1)N1CCC[C@@H]2C1CCN2c1ncnc2[nH]ccc12 (mixture of isomers) [Example 8-3]
Result: 6.00 to 7.00

Q: # iterate: O=C(OC1CCOCC1)N1CCCC2C1CCN2c1ncnc2[nH]ccc12 (centres unmarked) [Example 3-10]
Result: 7.00 to 8.00
